experiment: A CellTox Green Cytotoxicity Assay to monitor cytotoxicity in HEK293 cells - 8 hour (AID 1224884); settings: CellTox Green fluorescence; series mostly up to 76.8 µM; note: nearly all actives have a fitted effect of over 35% in size
Results filed as inconclusive are left out. Calls of active or inactive are those of the source. Calls come from the whole dose curve; as a rule, active = well fitted activation curve with a large enough effect in the repeat runs; inconclusive = weak or mixed curves; inactive = flat fitted curve, though single readings scatter.
Choose one outcome from this list and give only that: active, inactive

# compound, group
records = [
    ("CC(C)c1cccc(C(C)C)c1N1C(=O)c2ccc(O)cc2C1=O", "inactive"),
]

q: Could you check what this test reported for COc1cccc(O)c1 ?
a: inactive

q: Could you check what this test reported for C=CC(=C)CCC=C(C)C ?
a: inactive

q: Could you check what this test reported for CC1=CP(=O)(c2ccccc2)CC1 (configuration not stated) ?
a: inactive

q: Could you check what this test reported for CCc1cccc(CC)c1N(COC)C(=O)CS(=O)(=O)O ?
a: inactive

q: Could you check what this test reported for Clc1ccc(C(Cn2ccnc2)OCc2ccsc2Cl)c(Cl)c1 (configuration not stated) ?
a: inactive

q: Could you check what this test reported for CC1=CCC(=O)O1 ?
a: inactive
